Cited source: ChEMBL document CHEMBL4406895

- Procedure Summary: Antiproliferative activity in Chinese hamster R2 cells deficient in RFC, PCFT, and FRalpha assessed as reduction in cell growth after 96 hrs by Cell-Titer Blue assay
- Assay type: cell-based
- Setup Conditions: Cricetulus griseus, R2, 96 h
Recorded Endpoint: IC50

Examples from the recorded data:
>>> df
                                 smiles_str  recorded_endpoint  value_observed
0  CN(Cc1cc2c(=O)[nH]c(N)nc2[nH]1)S(=O)(=O)c1ccc(C(=O)N[C@@H](CCC(=O)O)C(=O)O)cc1               IC50       > 1000 nM
1  CN(Cc1cc2c(=O)[nH]c(N)nc2[nH]1)C(=O)c1cccc(C(=O)N[C@@H](CCC(=O)O)C(=O)O)c1               IC50       > 1000 nM
2  CN(Cc1cc2c(=O)[nH]c(N)nc2[nH]1)C(=O)c1ccc(C(=O)N[C@@H](CCC(=O)O)C(=O)O)s1               IC50       > 1000 nM
3  CN(Cc1cc2c(=O)[nH]c(N)nc2[nH]1)C(=O)c1cc(C(=O)N[C@@H](CCC(=O)O)C(=O)O)cs1               IC50       > 1000 nM
4  CN(Cc1cc2c(=O)[nH]c(N)nc2[nH]1)C(=O)c1ccc(C(=O)N[C@@H](CCC(=O)O)C(=O)O)cc1               IC50       > 1000 nM

Continue with the compound presented below.
Query: Please give the documented IC50 of CN(Cc1cc2c(=O)[nH]c(N)nc2[nH]1)C(=O)c1csc(C(=O)N[C@@H](CCC(=O)O)C(=O)O)c1
Response: > 1000 nM
